CONDITION NOTES: human, CSF, oral
OBSERVATION TYPE: Kp

query: So what does the record say about Kp for `COC(=O)N[C@H](C(=O)N[C@@H](Cc1ccccc1)[C@@H](O)CN(Cc1ccc(-c2ccccn2)cc1)NC(=O)[C@@H](NC(=O)OC)C(C)(C)C)C(C)(C)C` ?
result: < 0.01

---

PROTOCOL NOTES: Population pharmacokinetic modelling
Type: in vivo, human
CONDITION NOTES: human, plasma, oral
OBSERVATION TYPE: half-life

query: So what does the record say about half-life for COC(=O)N[C@H](C(=O)N[C@@H](Cc1ccccc1)[C@@H](O)CN(Cc1ccc(-c2ccccn2)cc1)NC(=O)[C@@H](NC(=O)OC)C(C)(C)C)C(C)(C)C [Atazanavir, atazanavir] ?
result: 15 h

---

PROTOCOL NOTES: Population pharmacokinetic modelling
Format: in vivo, human
CONDITION NOTES: human, plasma, oral
OBSERVATION TYPE: k el (s⁻¹)
Your answer is read as s⁻¹, so omit the unit and give the number.

query: So what does the record say about k el for `COC(=O)N[C@H](C(=O)N[C@@H](Cc1ccccc1)[C@@H](O)CN(Cc1ccc(-c2ccccn2)cc1)NC(=O)[C@@H](NC(=O)OC)C(C)(C)C)C(C)(C)C` ?
result: 1.25e-05
